test system: MDA-MB-231; assay: Cytotoxicity against human MDA-MB-231 cells assessed as cell growth inhibition after 24 hrs by MTT assay; format: functional, cell-based; details: MDA-MB-231, 24 h
Answer each item with its documented IC50.

Sample records with IC50:
Oc1cc2c(cc1O)[C@@H]1C[C@H](O)C[C@@H](c3ccccc3)N1CC2 : > 20 µM
O=[N+]([O-])c1ccc([C@@H]2C[C@@H](O)C[C@H]3c4cc(OCc5ccccc5)c(OCc5ccccc5)cc4CCN23)cc1 : > 20 µM
COc1ccc([C@@H]2C[C@@H](O)C[C@H]3c4cc(OCc5ccccc5)c(OCc5ccccc5)cc4CCN23)cc1OC : 1.15 µM
O[C@H]1C[C@@H](c2ccc(-c3ccccc3)cc2)N2CCc3cc(OCc4ccccc4)c(OCc4ccccc4)cc3[C@@H]2C1 : > 20 µM
Cc1cc(C)cc(COc2cc3c(cc2OCc2cc(C)cc(C)c2)[C@@H]2C[C@@H](O)C[C@@H](C)N2CC3)c1 (racemic) : 1.33 µM

Provide each entry's IC50 from the list below.
1. CCCCCCCCCCCCCCCCOc1cc2c(cc1OCCCCCCCCCCCCCCCC)[C@@H]1C[C@H](O)C[C@@H](C)N1CC2
2. CCCCCC[C@@H]1CC(=O)C[C@H]2c3cc(OCc4ccccc4)c(OCc4ccccc4)cc3CCN12 (relative stereo)
3. O=C1C[C@@H](c2ccc(-c3ccccc3)cc2)N2CCc3cc(OCc4ccccc4)c(OCc4ccccc4)cc3[C@@H]2C1 (relative stereo)

1. > 20 µM
2. > 20 µM
3. > 20 µM

Provide each entry's IC50 from the list below.
1. CCCCCCOc1cc2c(cc1OCCCCCC)[C@@H]1C[C@H](O)C[C@@H](C)N1CC2
2. COc1ccc([C@@H]2CC(=O)C[C@H]3c4cc(OCc5ccccc5)c(OCc5ccccc5)cc4CCN23)cc1 (relative stereo)
3. COc1cc([C@@H]2C[C@H](O)C[C@H]3c4cc(OCc5ccccc5)c(OCc5ccccc5)cc4CCN23)cc(OC)c1OC

> 20 µM
> 20 µM
> 20 µM

Provide each entry's IC50 from the list below.
1. O=C1C[C@@H](c2ccccc2)N2CCc3cc(OCc4ccccc4)c(OCc4ccccc4)cc3[C@@H]2C1 (relative stereo)
2. CC[C@@H]1CC(=O)C/C=C(/C)[C@H]2c3cc(OCc4ccccc4)c(OCc4ccccc4)cc3CCN12 (relative stereo)

1: > 20 µM; 2: > 20 µM

Provide each entry's IC50 from the list below.
1. CCCCCCCCCCCCCCCCOc1cc2c(cc1OCCCCCCCCCCCCCCCC)[C@@H]1CC(=O)C[C@@H](C)N1CC2
2. O=C1C[C@@H](c2ccc([N+](=O)[O-])cc2)N2CCc3cc(OCc4ccccc4)c(OCc4ccccc4)cc3[C@@H]2C1
3. CC[C@@H]1C[C@H](O)C/C=C(/C)[C@H]2c3cc(OCc4ccccc4)c(OCc4ccccc4)cc3CCN12
4. CC[C@@H]1C[C@H](O)C[C@H]2c3cc(OCc4ccccc4)c(OCc4ccccc4)cc3CCN12
5. CCCCCCOc1cc2c(cc1OCCCCCC)[C@@H]1CC(=O)C[C@@H](C)N1CC2 (relative stereo)
6. O[C@H]1C[C@@H](c2ccccc2)N2CCc3cc(OCc4ccccc4)ccc3[C@@H]2C1

> 20 µM
> 20 µM
> 20 µM
10.2 µM
> 20 µM
> 20 µM

Provide each entry's IC50 from the list below.
1. O=C1C[C@@H](c2ccccc2)N2CCc3ccc(OCc4ccccc4)cc3[C@@H]2C1 (relative stereo)
2. COc1ccc([C@@H]2CC(=O)C[C@H]3c4cc(OCc5ccccc5)c(OCc5ccccc5)cc4CCN23)cc1OC (relative stereo)
3. CCC[C@@H]1C[C@H](O)C/C=C(/CC)[C@H]2c3cc(OCc4ccccc4)c(OCc4ccccc4)cc3CCN12
4. O[C@@H]1C[C@@H](c2ccccc2)N2CCc3cc(OCc4ccccc4)ccc3[C@@H]2C1
5. O[C@H]1C[C@@H](c2ccccc2)N2CCc3ccccc3[C@@H]2C1
6. CCC[C@@H]1C[C@H](O)C[C@H]2c3cc(OCc4ccccc4)c(OCc4ccccc4)cc3CCN12
7. C[C@@H]1C[C@H](O)C[C@H]2c3cc(OCc4cccc(F)c4)c(OCc4cccc(F)c4)cc3CCN12
8. C[C@@H]1C[C@@H](O)C[C@H]2c3cc(OCc4cc(C(F)(F)F)cc(C(F)(F)F)c4)c(OCc4cc(C(F)(F)F)cc(C(F)(F)F)c4)cc3CCN12

["> 20 µM", "> 20 µM", "> 20 µM", "> 20 µM", "> 20 µM", "6.72 µM", "1.23 µM", "0.51 µM"]

Provide each entry's IC50 from the list below.
1. CCC[C@@H]1CC(=O)C/C=C(/CC)[C@H]2c3cc(OCc4ccccc4)c(OCc4ccccc4)cc3CCN12 (relative stereo)
2. C[C@@H]1C[C@H](O)C[C@H]2c3cc(OCc4ccccc4)c(OCc4ccccc4)cc3CCN12

1. > 20 µM
2. 7.22 µM

Measured values drawn from ChEMBL document CHEMBL4425094 for this set.
